- assay target: human AspH (His6-AspH315–758) (Homo sapiens, UniProt Q12797)
- Construct: N-Terminally His6-tagged human AspH315–758 (His6-AspH315–758) was produced in Escherichia coli BL21 (DE3) cells; made in house; host or cells: Escherichia coli BL21 (DE3), pET-28a(+) vector
- Sequence (Q12797 315-758): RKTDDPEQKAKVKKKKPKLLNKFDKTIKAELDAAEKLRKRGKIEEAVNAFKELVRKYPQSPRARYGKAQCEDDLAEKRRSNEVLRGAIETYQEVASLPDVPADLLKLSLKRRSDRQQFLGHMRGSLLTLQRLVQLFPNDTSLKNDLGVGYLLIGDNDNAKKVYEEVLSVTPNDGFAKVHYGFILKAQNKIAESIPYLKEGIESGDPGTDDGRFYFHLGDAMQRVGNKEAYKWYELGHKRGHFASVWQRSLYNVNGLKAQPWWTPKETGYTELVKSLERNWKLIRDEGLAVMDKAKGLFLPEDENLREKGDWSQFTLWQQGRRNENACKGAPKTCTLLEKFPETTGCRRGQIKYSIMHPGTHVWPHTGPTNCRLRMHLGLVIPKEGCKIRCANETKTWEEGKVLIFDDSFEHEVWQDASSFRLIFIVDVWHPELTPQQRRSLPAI
- assay overview: SPE-MS AspH inhibition assay (hFX-CP101-119 substrate hydroxylation)
- Assay type: biochemical
- condition label: AspH-inhibitor screening, 384-well Plate 1
Structures can show the parent of a compound that is named as a salt.
readout: Plate 1 (% inhibition) (%)

// known answers, use as guide
CC(=O)N(O)CCCCCNC(=O)CCC(=O)N(O)CCCCCNC(=O)CCC(=O)N(O)CCCCCN [Deferoxamine mesylate]; 14.63
CC/C(=C(\c1ccc(O)cc1)c1ccc(OCCN(C)C)cc1)c1ccccc1 [4-hydroxytamoxifen]; -45.98
C[C@]12C=CC(=O)C=C1CC[C@@H]1[C@@H]2[C@@H](O)C[C@@]2(C)[C@H]1CC[C@]2(O)C(=O)CO [Prednisolone]; 19.12

(P) COc1cc([C@@H]2c3cc4c(cc3[C@@H](O[C@@H]3O[C@@H]5CO[C@@H](c6cccs6)O[C@H]5[C@H](O)[C@H]3O)[C@H]3COC(=O)[C@H]23)OCO4)cc(OC)c1O [Teniposide]
(Q) CN(N=O)C(=O)N[C@@H](C=O)[C@@H](O)[C@H](O)[C@H](O)CO [Streptozocin]
In the pair P and Q , the larger recorded Plate 1 (% inhibition) belongs to which? Your answer should be the label of the entry you select. P

###

- assay target: human AspH (His6-AspH315–758) (Homo sapiens)
- Construct: N-Terminally His6-tagged human AspH315–758 (His6-AspH315–758) was produced in Escherichia coli BL21 (DE3) cells; made in house; host or cells: Escherichia coli BL21 (DE3), pET-28a(+) vector
- assay overview: SPE-MS AspH inhibition assay (hFX-CP101-119 substrate hydroxylation)
- Format: biochemical
- condition label: AspH-inhibitor screening, Plate 1-duplicate
readout: Plate 1-duplicate (% inhibition) (%)

// known answers, use as guide
COc1cc2c(cc1-c1c(C)noc1C)ncc1[nH]c(=O)n([C@H](C)c3ccccn3)c12 [I-BET151 (GSK1210151A)]; 1.98
COC(=O)C[C@](O)(CCCC(C)(C)O)C(=O)O[C@@H]1C(OC)=C[C@]23CCCN2CCc2cc4c(cc2[C@H]13)OCO4 [Omacetaxine mepesuccinate]; 6.33
N#CC[C@H](C1CCCC1)n1cc(-c2ncnc3[nH]ccc23)cn1 [INCB018424 (free base, Ruxolitinib)]; 3.98
Nc1nc(F)nc2c1ncn2[C@@H]1O[C@H](COP(=O)(O)O)[C@@H](O)[C@@H]1O [Fludarabine phosphate]; 1.33

(A) CS(=O)(=O)N1CCN(Cc2cc3nc(-c4cccc5[nH]ncc45)nc(N4CCOCC4)c3s2)CC1
(B) CC(=O)c1c(C)c2cnc(Nc3ccc(N4CCNCC4)cn3)nc2n(C2CCCC2)c1=O [Palbociclib]
(C) CN1CCc2c(c3ccccc3n2Cc2ccc(C(=O)NO)cc2)C1.Cl [Tubastatin A HCl]
(D) COc1cc(Nc2c(C#N)cnc3cc(OCCCN4CCN(C)CC4)c(OC)cc23)c(Cl)cc1Cl
Let's sort these by Plate 1-duplicate (% inhibition), smallest first. Go ahead? Reply format: the labels, ordered as requested. D, C, A, B
(D: -50.33%, C: -15.22%, A: 2.57%, B: 4.20%)

###

- assay target: human AspH (His6-AspH315–758) (Homo sapiens, UniProt Q12797)
- Construct: N-Terminally His6-tagged human AspH315–758 (His6-AspH315–758) was produced in Escherichia coli BL21 (DE3) cells; made in house; host or cells: Escherichia coli BL21 (DE3), pET-28a(+) vector
- assay overview: SPE-MS AspH inhibition assay (hFX-CP101-119 substrate hydroxylation)
- Format: biochemical
- condition label: AspH-inhibitor screening, Plate 1-duplicate
readout: Plate 1-duplicate (% inhibition) (%)

CC(C)Cn1cnc2c(N)nc3ccccc3c21; 5.27
CNCc1ccc(-c2[nH]c3cc(F)cc4c3c2CCNC4=O)cc1; 9.37
CC(=O)OC[C@H]1O[C@@H](n2ccc(=O)[nH]c2=O)[C@H](OC(C)=O)[C@@H]1OC(C)=O [Uridine triacetate]; 7.04
COc1cc(F)c(F)c(Nc2ccc(I)cc2F)c1NS(=O)(=O)C1(C[C@H](O)CO)CC1; 4.05
Cl.NC(=O)Nc1cc(-c2cccc(F)c2)sc1C(=O)N[C@H]1CCCNC1 [AZD 7762 hydrochloride]; 4.66

(1) COc1c(C)cnc(Cn2cnc3c(Cl)nc(N)nc32)c1C
(2) Cc1cc(Nc2cc(CN3CCOCC3)c3nc(C)c(Cc4ccc(Cl)cc4F)n3n2)n[nH]1
(3) Cn1cnc2c(F)c(Nc3ccc(Br)cc3F)c(C(=O)NOCCO)cc21
(4) O=S(=O)(c1cccc2cnccc12)N1CCCNCC1
Let's sort these by Plate 1-duplicate (% inhibition), smallest first. Go ahead? Reply format: the labels, ordered as requested. 2, 3, 1, 4
(2: -64.31%, 3: 1.23%, 1: 5.00%, 4: 12.84%)

###

- assay target: human AspH (His6-AspH315–758) (Homo sapiens)
- Construct: N-Terminally His6-tagged human AspH315–758 (His6-AspH315–758) was produced in Escherichia coli BL21 (DE3) cells; made in house; host or cells: Escherichia coli BL21 (DE3), pET-28a(+) vector
- assay overview: SPE-MS AspH inhibition assay (hFX-CP101-119 substrate hydroxylation)
- Format: biochemical
- condition label: AspH-inhibitor screening, 384-well Plate 1, substrate conversion
readout: Plate 1 (% conversion) (%)

Oc1nc(-c2ccc(C(F)(F)F)cc2)nc2c1CSCC2 [XAV-939]; 49.73
O=NN(CCCl)C(=O)NCCCl [Carmustine]; 49.02
C/C(=C\c1csc(C)n1)[C@@H]1C[C@@H]2O[C@]2(C)CCC[C@H](C)[C@H](O)[C@@H](C)C(=O)C(C)(C)[C@@H](O)CC(=O)N1 [Ixabepilone]; 50.61
CCNC(=O)CCC/C=C\C[C@@H]1[C@@H](/C=C/[C@@H](O)CCc2ccccc2)[C@H](O)C[C@@H]1O [Bimatoprost]; 50.61
COc1cc2c(Nc3ccc(Br)cc3F)ncnc2cc1OCC1CCN(C)CC1 [Vandetanib]; 49.87

###

- assay target: human AspH (His6-AspH315–758) (Homo sapiens, UniProt Q12797)
- Construct: N-Terminally His6-tagged human AspH315–758 (His6-AspH315–758) was produced in Escherichia coli BL21 (DE3) cells; made in house; host or cells: Escherichia coli BL21 (DE3), pET-28a(+) vector
- assay overview: SPE-MS AspH inhibition assay (hFX-CP101-119 substrate hydroxylation)
- Type: biochemical
- condition label: AspH-inhibitor screening, Plate 1-duplicate, substrate conversion
Where a name gives a salt, the structure may show the parent alone.
readout: Plate 1-duplicate (% conversion) (%)

COc1cc2nccc(Oc3ccc(NC(=O)NC4CC4)c(Cl)c3)c2cc1C(N)=O; 59.86
CC1(C)CNc2cc(NC(=O)c3cccnc3NCc3ccncc3)ccc21.O=P(O)(O)O.O=P(O)(O)O [Motesanib Diphosphate (AMG-706)]; 38.93
CNC(=O)c1cc(Oc2ccc(NC(=O)Nc3cc(C(C)(C)C)nn3-c3ccc4ncccc4c3)c(F)c2)ccn1; 50.25
CN(C)C/C=C/C(=O)Nc1cc2c(Nc3ccc(F)c(Cl)c3)ncnc2cc1O[C@H]1CCOC1; 73.03
CO[C@@H](C(=O)N1Cc2[nH]nc(NC(=O)c3ccc(N4CCN(C)CC4)cc3)c2C1)c1ccccc1; 51.48
CCCS(=O)(=O)Nc1ccc(F)c(C(=O)c2c[nH]c3ncc(-c4ccc(Cl)cc4)cc23)c1F [Vemurafenib, reference compound]; 12.00
CCCCCOC(=O)Nc1nc(=O)n([C@@H]2O[C@H](C)[C@@H](O)[C@H]2O)cc1F; 46.76
COc1cc2c(Nc3ccc(Br)cc3F)ncnc2cc1OCC1CCN(C)CC1; 51.12
Nc1nc(F)nc2c1ncn2[C@@H]1O[C@H](COP(=O)(O)O)[C@@H](O)[C@@H]1O [Fludarabine phosphate]; 51.38
S=P(N1CC1)(N1CC1)N1CC1; 48.21
Cc1c(C(=O)Nc2ccc(N3C[C@@H](C)O[C@@H](C)C3)nc2)cccc1-c1ccc(OC(F)(F)F)cc1.O=P(O)(O)O.O=P(O)(O)O [NVP-LDE225 (Diphosphate salt)]; 61.81
CNC(=O)c1cccc(-c2ccc3c(N4CCOC[C@@H]4C)nc(N4CCOC[C@@H]4C)nc3n2)c1; 49.59
COc1cccc2c1C(=O)c1c(O)c3c(c(O)c1C2=O)C[C@@](O)(C(C)=O)C[C@@H]3O[C@H]1C[C@H](N)[C@H](O)[C@H](C)O1 [Daunorubicin hydrochloride]; 71.89
COc1cc2ncnc(Nc3ccc(F)c(Cl)c3)c2cc1OCCCN1CCOCC1; 70.65
CN(C)CCN1C(=O)c2cccc3cc(N)cc(c23)C1=O [Amonafide]; 50.42
CCn1c(C(=O)N(C2CC2)C2CC2)cc2c3c(ncn3C)c(Nc3cc(C)n(C)n3)nc21; 59.44
CNC(=O)c1ccc(N2C(=S)N(c3ccc(C#N)c(C(F)(F)F)c3)C(=O)C23CCC3)cc1F; 53.13
CS(=O)(=O)CCNCc1ccc(-c2ccc3ncnc(Nc4ccc(OCc5cccc(F)c5)c(Cl)c4)c3c2)o1; 61.75
